Data origin: PubChem BioAssay (Tox21)

- assay-notes: A CellTox Green Cytotoxicity Assay to monitor cytotoxicity in HepG2 cells - 24 hour (AID 1224878); note: nearly all actives have a fitted effect of over 45% in size
- conditions-used: CellTox Green fluorescence; series mostly up to 76.8 µM
Records with an inconclusive call do not appear. Active and inactive are the calls of the source. Calls come from the whole dose curve; as a rule, active = well fitted activation curve with a large enough effect in the repeat runs; inconclusive = weak or mixed curves; inactive = flat fitted curve, though single readings scatter.
Choose the fitting class; nothing outside active, inactive is accepted.

-- ask Identify the outcome logged in this assay for the compound shown: "Cc1cccc(N(C)C(=S)Oc2ccc3c(c2)CCC3)c1"
-- reply inactive

###

- assay-notes: qHTS assay to identify small molecule agonists of the RXR signaling pathway - cell viability counter screen (AID 1159529); note: nearly all actives have a fitted effect of over 50% in size
- conditions-used: RXR-alpha-bla HEK293T viability, CellTiter-Glo, 16 h; series mostly up to 76.8 µM
- Excerpt: National Center for Advancing Translational Sciences [NCATS] NIH Chemical Genomics Center [NCGC] U.S. Environmental Protection Agency [EPA] National Institutes of Environmental Health Sciences [NIEHS] National Toxicology Program [NTP] U.S. Food and Drug Administration [FDA] The Retinoid X receptor (RXR), a nuclear hormone receptor expressed in liver, spleen, placenta, epidermis, central nervous system. […]
Records with an inconclusive call do not appear. Active and inactive are the calls of the source. The call rests on the fitted dose curve; in most records, active means well fitted cell-killing curve with a large enough effect in the repeat runs; inconclusive means weak or mixed curves, or effect the other way; inactive means no such curve, though single readings can be large or run the other way.
Choose the fitting class; nothing outside Yes = active, No = inactive is accepted.

Answered examples (8):
molecule=C[C@@H]1CN(CCCn2c3ccccc3c3ccccc32)C[C@H](C)N1 answer_label=Yes
molecule=O=C(O)c1ccc(OCCCOc2ccc(C(=O)O)cc2)cc1 answer_label=No
molecule=CC(=O)NC1(c2cccc(F)c2)CCN(CC[C@@]2(c3ccc(Cl)c(Cl)c3)CN(c3ccccc3)C(=O)CO2)CC1 answer_label=Yes
molecule=COc1cc(C(=O)NCCCCCC(=O)O)cc(OC)c1OC answer_label=No
molecule=CCOC(=O)c1ccccc1C(=C1C=C(Br)C(=O)C(Br)=C1)c1cc(Br)c(O)c(Br)c1 answer_label=No
molecule=CCCCCCNC(=O)n1cc(F)c(=O)[nH]c1=O answer_label=No
molecule=Cc1ccco1 answer_label=No
molecule=CC(=O)c1cc2ccccc2s1 answer_label=No

-- ask Identify the outcome logged in this assay for the molecule shown: "O=C(O)CCC(=O)C(=O)O"
-- reply No

-- ask Identify the outcome logged in this assay for the molecule shown: CC1CC(OC(=O)C(O)c2ccccc2)CC(C)(C)N1C (configuration not stated)
-- reply No

-- ask Identify the outcome logged in this assay for the molecule shown: C=C1CCC2CC1C2(C)C (configuration not stated)
-- reply No

-- ask Identify the outcome logged in this assay for the molecule shown: "CCCCCCC(C)(C)C(=O)O"
-- reply No

###

- target-desc: Cytochrome P450 2D6 (Homo sapiens)
- assay-notes: Cytochrome P450 Family 2 Subfamily D Member 6 (CYP2D6) small molecule antagonists: luciferase reporter qHTS assay (AID 1671196); note: nearly all actives have a fitted effect of over 50% in size; note: potency is the fitted concentration of half-maximal effect
- conditions-used: P450-Glo CYP2D6 enzyme assay, luciferin luminescence, 1 h; series mostly up to 115 µM
Inconclusive results are not listed. The source made the active and inactive calls. The call rests on the fitted dose curve; in most records, active means well fitted inhibition curve with a large enough effect in the repeat runs; inconclusive means weak or mixed curves; inactive means no such curve, though single readings can be large or run the other way.
reported-metric: Potency

Guide cases for Potency, answers given:
compound=O=C1c2ccccc2C(=O)C1c1ccc(Br)cc1 observed=inactive
compound="O=C1C(=O)c2ccccc2C(O)=C1C1CCC(c2ccc(Cl)cc2)CC1 (configuration not stated)" observed=inactive
compound=CCOC(=O)c1ccc(OCCN2C[C@H](O)[C@@H](O)[C@H](O)[C@H]2CO)cc1 observed=inactive
compound=C=C(C)[C@@H]1CCC2=CCC[C@@H](C)[C@]2(C)C1 observed=inactive

-- ask Lab note: need Potency with Cytochrome P450 2D6 (Homo sapiens) for entry "NCCNCCO" , please look it up.
-- reply 28.6 µM (active)

-- ask Lab note: need Potency with Cytochrome P450 2D6 (Homo sapiens) for entry "CC(C)(c1ccccc1)c1ccccc1" , please look it up.
-- reply 58.8 µM (active)

-- ask Lab note: need Potency with Cytochrome P450 2D6 (Homo sapiens) for entry "O=C(Nc1cccc2c(=O)cc(-c3nn[nH]n3)oc12)c1ccc(OCCCCc2ccccc2)cc1" , please look it up.
-- reply inactive
